# Tested on: Enterobacter cloacae
# Method: MIC against Gram-negative bacteria: Enterobacter cloacae
# Type: cell-based
# Condition Info: 10 h cultivation at 37° C., 5×10^5 CFU/mL, two-fold serial dilution
Assay Readout: MIC E. cloacae (µg/mL)
API: value field is a number in µg/mL; no unit string.

GET /value?item= PRT1189 (ECVPYPGCVHGSCVEPWQCNCETNWGGLLCD; listed as Homo sapiens) &field=MIC E. cloacae returns 12.5

GET /value?item= PRT1141 (EINECSSEPCKNNGTCVDLTNRFFCNCEPEYHGPFCE; listed as Homo sapiens) &field=MIC E. cloacae returns 50

GET /value?item= PRT1137 (ESNECKMNPCKNNSTCTDLYKSYRCECTSGWTGQNCS; listed as Homo sapiens) &field=MIC E. cloacae returns 25

GET /value?item= PRT1177 (DANECEAKPCVNAKSCKNLIASYYCDCLPGWMGQNCD; listed as Homo sapiens) &field=MIC E. cloacae returns 50
